- assayNotes: Pharmacokinetics after intravenous administration to rats
- Type: in vivo, male Sprague-Dawley rats
- assaySetup: male, Sprague-Dawley, rat, plasma, iv, 20 mg/kg, AUC0-∞, i.v. 20 mg/kg
testReadout: AUC(0-inf) (ng·h/mL)
Quick note: give the figure in ng·h/mL, leave out the unit.

Q: Given the entry O=C(CC(=O)c1ccccc1)c1ccccc1 , report its measured AUC(0-inf).
A: 27900

----------
- assayNotes: Blood cell partitioning
- Type: in vitro ADME
- assaySetup: rat, fresh pooled rat blood
testReadout: blood plasma ratio at 2 h, 10 μg/mL
No unit in the answer, only the number.

Q: Given the entry O=C(CC(=O)c1ccccc1)c1ccccc1 [DBM, 1,3-Diphenyl-1,3-propanedione] , report its measured blood plasma ratio at 2 h, 10 μg/mL.
A: 0.93

----------
- Type: in vivo, Nrf2 knockout C57BL/6J (−/−) mice
- assaySetup: male, C57BL/6J, mouse, plasma, ip, 100 mg/kg
testReadout: Cmax (ng/mL)
Quick note: give the figure in ng/mL, leave out the unit.

Q: Given the entry O=C(CC(=O)c1ccccc1)c1ccccc1 [DBM, 1,3-Diphenyl-1,3-propanedione] , report its measured Cmax.
A: 6860
